These measurements were taken from ChEMBL document CHEMBL1131978.

# Tested on: Staphylococcus aureus
# method_notes: In vitro antibacterial activity against the methicillin-resistant Staphylococcus aureus 88
# Assay type: functional
property_measured: log10 MIC (log10 of the value in µg/mL)

- line_notation: "CC(=O)NC[C@H]1CN(c2ccc(N3CCN(Cc4cc(-c5ccccn5)no4)CC3)c(F)c2)C(=O)O1"
  property_measured: "log10 MIC"
  observed_value: 0.19
- line_notation: "CC(=O)NC[C@H]1CN(c2ccc(N3CCN(C(=O)c4cc(O)no4)CC3)c(F)c2)C(=O)O1"
  property_measured: "log10 MIC"
  observed_value: 1.70
- line_notation: "CC(=O)NC[C@H]1CN(c2ccc(N3CCN(C(=O)c4cc(C#N)no4)CC3)c(F)c2)C(=O)O1"
  property_measured: "log10 MIC"
  observed_value: 0.19
- line_notation: "CC(=O)NC[C@H]1CN(c2ccc(N3CCN(C(=O)c4cc(-c5cnsn5)no4)CC3)c(F)c2)C(=O)O1"
  property_measured: "log10 MIC"
  observed_value: 0.19
- line_notation: "CC(=O)NC[C@H]1CN(c2ccc(N3CCN(Cc4cc(-c5ccc(C#N)cc5)no4)CC3)c(F)c2)C(=O)O1"
  property_measured: "log10 MIC"
  observed_value: 0.80
- line_notation: "CC(=O)NC[C@H]1CN(c2ccc(N3CCN(C(=O)c4ccno4)CC3)c(F)c2)C(=O)O1"
  property_measured: "log10 MIC"
  observed_value: 0.19
- line_notation: "CC(=O)NC[C@H]1CN(c2ccc(N3CCN(C(=O)c4cc(C(N)=O)no4)CC3)c(F)c2)C(=O)O1"
  property_measured: "log10 MIC"
  observed_value: 0.19
- line_notation: "CCCCCCCCCCS(=O)(=O)N[C@H](CCCCCC)COP(=O)(O)OCCO"
  property_measured: "log10 MIC"
  observed_value: 0.19
- line_notation: "CC(=O)NC[C@H]1CN(c2ccc(N3CCN(Cc4cc(-c5ccc(Cl)cc5)no4)CC3)c(F)c2)C(=O)O1"
  property_measured: "log10 MIC"
  observed_value: 1.70
- line_notation: "COc1cc(C(=O)N2CCN(c3ccc(N4C[C@H](CNC(C)=O)OC4=O)cc3F)CC2)on1"
  property_measured: "log10 MIC"
  observed_value: 0.19
- line_notation: "CC(=O)NC[C@H]1CN(c2ccc(N3CCN(C(=O)c4cccs4)CC3)c(F)c2)C(=O)O1"
  property_measured: "log10 MIC"
  observed_value: 0.19
- line_notation: "CC(=O)NC[C@H]1CN(c2ccc(N3CCN(Cc4cc(-c5ccc(F)cc5)no4)CC3)c(F)c2)C(=O)O1"
  property_measured: "log10 MIC"
  observed_value: 0.49
- line_notation: "CC(=O)NC[C@H]1CN(c2ccc(N3CCN(C(=O)c4cc(-c5csnn5)no4)CC3)c(F)c2)C(=O)O1"
  property_measured: "log10 MIC"
  observed_value: -0.11
